From: patent US12427189B2

- System: MMC cells
- protocol-summary: Cell viability MTT assay, MMC cells
- Assay type: cell-based, mouse
- condition: Mus musculus; parent MMC cells
quantity-kind: IC50
The answer consists of two parts: a number and, after it, its unit.

Entry CS(=O)(=O)CCNCc1ccc(-c2ccc3ncnc(Nc4ccc(OCc5cccc(F)c5)c(Cl)c4)c3c2)o1 [lapatinib] , tested on MMC cells, has a reported IC50 of 76 nM

----------
- Test system: LR-MMC cells
- protocol-summary: Cell viability MTT assay, lapatinib-resistant MMC cells
- Type: cell-based, mouse
- condition: Mus musculus; LR-MMC cells
- Protocol: Neu-transgenic mice [strain: FVB/N-Tg(MMTVneu)202Mul] were obtained from the Jackson Laboratory (Bar Harbor, ME). These mice harbor non-mutated, non-activated rat neu under the control of the mouse mammary tumor virus (MMTV) promoter/enhancer. […] Cells were seeded at a density of 1×10^5 cells in 6-well plates. […] Cell viability was quantitatively analysed using the 3-[4,5-dimethylthiazol-2-yl]-2,5-diphenyltetrazolium (MTT) assay. […] The percent of cell survival was calculated using […] […]
quantity-kind: pIC50
Here pIC50 is given on a logarithmic scale as minus log10 of the concentration in mol/L.

pIC50 reading for CS(=O)(=O)CCNCc1ccc(-c2ccc3ncnc(Nc4ccc(OCc5cccc(F)c5)c(Cl)c4)c3c2)o1 : 6.41
